# credit: PubChem BioAssay

assay: small-molecule microarray binders of probe aXIP, primary screen, biochemical, NeuroSMM set, 635/667 nm fluorescence (AID 1119); details: higher = more signal, called active from +8 up or from −8 down;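 note: probe is the protein aXip251-270 applied at 1 µg/mL to compound-printed slides; binding of probe to printed compounds measured as 667 nm fluorescence plus signal to noise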
Active and inactive are the calls of the source.
quantity-name: composite Z-score

Examples from the recorded data:
{"molecule": "COc1ccc(C(=O)Nc2cccc(CN3C(=O)[C@]4(O[C@H](CCO)[C@@H]([Si](C)(C)c5ccc(OC)cc5)[C@@H]4C)c4ccccc43)c2)cc1", "composite Z-score": "-0.494 (inactive)"}
{"molecule": "COc1ccc(CCNC(=O)[C@@]2(Sc3ccc(C)cc3)CC(=O)N(C3CCCCC3)[C@@H]2c2ccc(CO)cc2I)cc1", "composite Z-score": "0.0371 (inactive)"}
{"molecule": "O=C1OCCC/C=C\\[C@H]2OC34C=CCN(Cc5ccccc5)C(=O)[C@H]3N(CCCCCCO)C(=O)[C@@H]4C12 (some centres undefined)", "composite Z-score": "0.986 (inactive)"}

Problem: Which composite Z-score value belongs to CC(C)N1C(=O)[C@@]2(Cc3ccccc31)c1ccccc1C(=O)N(C1CCCCC1)[C@H]2c1ccc(CO)cc1 ?
Solution: -0.0662 (inactive)

Problem: Which composite Z-score value belongs to COCCOC(=O)N1C(=O)[C@@]2(c3cc(C#Cc4ccc(OC)cc4)ccc31)[C@H](c1ccccc1OCCO)N1[C@H](c3ccccc3)[C@H](c3ccccc3)OC(=O)[C@H]1[C@@H]2C(=O)N1CCN(c2ncccn2)CC1 ?
Solution: 0.179 (inactive)

Problem: Data request, read-out composite Z-score, for COc1ccc([Si](C)(C)[C@H]2[C@H](CCn3cc([C@H](O)c4ccccc4)nn3)O[C@@]3(C(=O)N(Cc4cccc(N5CCOC5=O)c4)c4ccccc43)[C@@H]2C)cc1
Solution: -0.01 (inactive)

Problem: Using the record for CC(=O)NCCCC[C@@H]1NC(=O)[C@@H]2C[C@H](C(=O)NCCCCN(C)C)[C@H](c3cccc(OCCO)c3)N2C1=O , report its composite Z-score.
Solution: 0.714 (inactive)

Problem: Find the recorded composite Z-score belonging to COC(=O)[C@@]1(Cc2ccc(F)cc2)[C@H]2c3cc(C(=O)N4CCCC4)n(Cc4ccc(C)o4)c3C[C@H]2CN1C(=O)c1ccccc1 and report it.
Solution: 0.157 (inactive)

Problem: Which measured composite Z-score value corresponds to CCOC(=O)C[C@H]1[C@H](OC(=O)Cc2ccc3c(c2)OCO3)[C@@H](NC(=O)c2ccc(-c3ccccc3)cc2)c2cc(OCCCO)ccc2N1C(=O)c1ccc2ccccc2n1 ?
Solution: -0.549 (inactive)

Problem: # lookup: composite Z-score of COC(=O)[C@@]1(Cc2ccc(OC)cc2)[C@H]2c3cc(C(=O)N(C)C)n(CCN4CNCC4=O)c3C[C@H]2CN1C(=O)c1ccccc1
Solution: -0.704 (inactive)

Problem: Consider the molecule CN(C)CCCNC(=O)[C@@]1(C)c2ccccc2C(=O)N(Cc2cc(F)cc(C(F)(F)F)c2)[C@H]1c1ccc(CO)cc1 and give its measured composite Z-score.
Solution: 0.101 (inactive)

* * *

assay: CREB reporter modulators under forskolin, primary screen, cell-based, PC12, CRE-LacZ reporter, forskolin-stimulated (AID 1146); details: luminescence, 4.5 h, higher = more signal, called active from +8 up or from −8 down;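 note: PC12 cells with 6xCRE LacZ reporter stimulated by forskolin 10 µM; beta-galactosidase reporter signal reflecting CREB driven transcription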
z-score values by entry
Could you respond with only the numeric value?

Problem: Using the record for COc1ccc(C(O)C2C=CC3C(=O)NC(=O)C3N2Nc2ccccn2)cc1 (configuration not stated) , report its z-score.
Solution: -0.239

Problem: Which value of z-score has been reported for COc1ccc([C@H]2OC[C@@H]3CC4(CC=CC4)C(=O)N32)cc1 in the records?
Solution: 0.249

* * *

test: E. coli DRC41 culture turbidity changes, primary screen, E. coli filamentation inducer project, strain DRC41, OD650, 48 h (AID 1152);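 note: E. coli MC1000 strain DRC41 lacking acrAB efflux pump and sulA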; details: E. coli DRC41 (acrAB sulA), higher = more signal, called active from +8 up or from −8 down
Use z-score to assign classes; range list: one = under -0.2, two = from -0.2 up to 0.2, three = 0.2 and over

Problem: Which category fits this record: COCCOC(=O)N1C(=O)[C@@]2(c3cc(C#CC4=CCCCC4)ccc31)[C@H](C(=O)Nc1nc3ccccc3s1)[C@H]1C(=O)O[C@H](c3ccccc3)[C@H](c3ccccc3)N1[C@@H]2c1ccc(OCCO)cc1
Solution: one

Problem: Sort into band: CC(C)[C@@H](CO)NC(=O)[C@H]1[C@@H](c2ccccc2)N(c2ccccc2)O[C@@H]1C
Solution: three

Problem: Which class holds O=C(NCc1ccccc1)[C@@]1(Cc2ccccc2)N=C(c2ccc(OCCCO)cc2)O[C@H]1c1ccccc1 ?
Solution: two

Problem: Into which bin does this compound go? COC(=O)[C@@]1(Cc2ccccc2)[C@H]2c3cc(C(=O)N4CCCC4)n(Cc4nc5ccccc5[nH]4)c3C[C@H]2CN1C(=O)c1ccccc1
Solution: one

Problem: Exercise: read the entry COc1ccc(CCN2C(=O)[C@@]3(Cc4ccccc42)c2ccccc2C(=O)N(Cc2ccccc2C(F)(F)F)[C@H]3c2ccc(CO)cc2)cc1 and state which class it falls under.
Solution: one

* * *

assay: binders of probe aHhip on microarray, primary screen, stem cell growth factor project, biochemical, small-molecule microarray, fluorescence 635/667 (AID 1087); settings: higher = more signal;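 note: score merges spot fluorescence at 667nm with spot signal to noise ratio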
Classification field: enter True for composite z-score values not below -0.2, False for values below it.

{"compound": "COc1ccc([C@H]2OC[C@@H]3CC4(CC=CC4)C(=O)N32)cc1", "label": "False"}

Problem: Hello, I need to know if CCCCN1CC=CC23O[C@@H]4C=CCOC(=O)[C@@H]4[C@H]2C(=O)N(CCCCCO)[C@@H]3C1=O (stereo partly drawn) has measured composite z-score not below -0.2. Thanks!
Solution: False

Problem: State whether the measured composite z-score reaches -0.2, counting equality as reaching it, for COc1ccc(CCN2C(=O)[C@@]3(c4ccc([N+](=O)[O-])cc4)CC(=O)N(C4CCCCC4)[C@@H]3c3ccc(CO)cc32)cc1
Solution: True

Problem: Does the compound [N-]=[N+]=Nc1ccccc1C[C@]1(C(=O)NCC(O)CO)N=C(c2ccc(OCCCO)cc2)O[C@H]1c1ccccc1N=[N+]=[N-] (stereo partly drawn) have recorded composite z-score that is -0.2 or more?
Solution: True

Problem: Is it the case that COc1ccc(C(O)C2C=CC3C(=O)NC(=O)C3N2Nc2ccccn2)cc1 (stereo not drawn) has composite z-score reaching or exceeding -0.2?
Solution: True

Problem: Hi, just wondering whether C=CCN1C(=O)[C@@]2(O[C@@H](CCO)[C@H]([Si](C)(C)c3ccc(OC)cc3)[C@H]2C)c2cc(NC(=O)c3ccc(OC)cc3)ccc21 shows composite z-score of -0.2 or higher.
Solution: True

Problem: Dear colleague, could you confirm whether [N-]=[N+]=Nc1ccccc1C[C@@]1(C(=O)NCCN2CCOCC2)N=C(c2ccc(OCCCO)cc2)O[C@@H]1c1ccccc1 has composite z-score at or above -0.2?
Solution: False

* * *

test: E. coli acrAB mutant growth effects, primary screen, E. coli filamentation inducers, strain DRC39, OD650, 24 h (AID 1178); details: higher = more signal, called active from +8 up or from −8 down;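 note: growth measured as culture turbidity by optical density at 650 nm; test concentration not given here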
quantity-name: z-score
Just the number, please, no unit after it.

Some solved entries appear below for comparison.
{"molecule-smiles": "COC(=O)[C@@]1(Cc2ccc(OC)cc2)[C@H]2c3cc(C(=O)N(C)C)n(CCN4CNCC4=O)c3C[C@H]2CN1C(=O)c1ccccc1", "quantity-name": "z-score", "experimental-value": 0.479}
{"molecule-smiles": "Cc1ccc(S[C@]2(C(=O)NCC(F)(F)F)CC(=O)N(C(C)C)[C@@H]2c2ccc(CO)cc2I)cc1", "quantity-name": "z-score", "experimental-value": 0.0212}
{"molecule-smiles": "Cc1ccc(S[C@]2(C(=O)NC3CC3)CC(=O)N(C3Cc4ccccc4C3)[C@@H]2c2ccc(CO)cc2)cc1", "quantity-name": "z-score", "experimental-value": 0.851}

Please turn your attention to the following entry.
Problem: What measured z-score goes with [N-]=[N+]=Nc1ccccc1[C@H]1OC(c2ccc(OCCCO)cc2)=N[C@@]1(Cc1ccccc1)C(=O)O ?
Solution: 0.451

* * *

composite z-score by entry:
test: compound binding in COS7 lysate, probe aLAP1, primary screen, cell lysate, small-molecule microarray (AID 1124); conditions: probe aLAP1, fluorescence, higher = more signal;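 note: lysate comes from COS7 cells expressing LAP1 and is applied at 0.3 µg/mL; score merges spot fluorescence near 667 nm with signal-to-noise over triplicate slides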

{"compound": "C=CCNC(=O)[C@H]1[C@@H]2C(=O)O[C@@H](c3ccccc3)[C@@H](c3ccccc3)N2[C@@H](c2ccccc2OCCO)[C@]12C(=O)Nc1ccc(C#CC3=CCCCC3)cc12", "quantity-name": "composite z-score", "experimental-value": 1.37}
{"compound": "COc1ccc([Si](C)(C)[C@H]2[C@H](CC(=O)N3CCC[C@H]3CO)O[C@@]3(C(=O)N(Cc4cccc(N5C(=O)c6cccc7cccc5c67)c4)c4ccccc43)[C@@H]2C)cc1", "quantity-name": "composite z-score", "experimental-value": 0.0595}
{"compound": "[N-]=[N+]=Nc1ccccc1C[C@]1(C(=O)NCC(O)CO)N=C(c2ccc(OCCCO)cc2)O[C@H]1c1ccccc1N=[N+]=[N-] (some centres not stated)", "quantity-name": "composite z-score", "experimental-value": -0.352}
{"compound": "COC(=O)C(CC#Cc1ccc2c(c1)[C@]1(C(=O)N2)[C@H](C(=O)O)[C@H]2C(=O)O[C@H](c3ccccc3)[C@H](c3ccccc3)N2[C@@H]1c1ccc(O)cc1)C(=O)OC", "quantity-name": "composite z-score", "experimental-value": 0.898}
{"compound": "C=C(CCCC)C(=O)CC[C@H](OC(=O)c1cccnc1)c1ccccc1OCCO", "quantity-name": "composite z-score", "experimental-value": 0.259}
{"compound": "CN1C(=O)C2C=CC(C(O)C3=C[C@H]4C[C@@H](C3)C4(C)C)N(Nc3ccccc3)C2C1=O (some centres not stated)", "quantity-name": "composite z-score", "experimental-value": -0.678}
{"compound": "O=C(NCc1ccccc1)[C@@]1(CCS(=O)(=O)c2ccccc2)N=C(c2ccc(OCCCO)cc2)O[C@H]1c1ccccc1", "quantity-name": "composite z-score", "experimental-value": 0.557}
{"compound": "O=C1OCCC/C=C\\[C@H]2OC34C=CCN(Cc5ccccc5)C(=O)[C@H]3N(CCCCCCO)C(=O)[C@@H]4C12 (some centres not stated)", "quantity-name": "composite z-score", "experimental-value": 0.468}

Please examine the following record next.
Problem: Bench note: what composite z-score did COC(=O)[C@@]1(Cc2ccc(F)cc2)[C@H]2c3cc(C(=O)N4CCCC4)n(Cc4cc(C)n(C)n4)c3C[C@H]2CN1C(=O)c1ccccc1 show?
Solution: 1.14
